assay: TLR3 IRF3 reporter activation blockers – cell-based, poly I:C stimulus, luciferase, 10K MLSCN set, primary screen (AID 602277); settings: HEK293-TLR3 RL24 IRF3 luciferase reporter, at 10 µM, active compounds read high
ENDPOINT NAME: inhibition (%)
Answer in %, number only, no unit symbol.

Worked cases, inhibition given:
Cc1cc(C)c2nc(C(F)(F)F)nc(NCCCN3CCCC3=O)c2c1 :: 18.3
COc1ccccc1N1CCN(C(=O)CSc2nc3ncnc(N)c3[nH]2)CC1 :: 23.6
Nc1c(N2CCCCC2)c(=O)[nH]c(=O)n1-c1ccccc1 :: -5.22
Cc1ccc(CNC(=O)C2CC(=O)OC23CCCC3)c(C)c1 (stereo not drawn) :: 20.9
Cc1sc2nc(SCC(=O)N3CCN(CCO)CC3)n(-c3ccccc3)c(=O)c2c1C :: 31

query: Quick one: inhibition of CCC(=O)Oc1ccc2c(C)cc(=O)oc2c1C ?
result: -2.94

query: Quick one: inhibition of CN1CC=C2C(C#N)=C(N)C(C#N)(C#N)C(c3cccc(Cl)c3Cl)C2C1 (stereo not drawn) ?
result: 9.8

query: Quick one: inhibition of CCOC(=O)c1ccc(NC(=O)CSc2ncccn2)cc1 ?
result: -63.9

query: Quick one: inhibition of O=C(c1cccnc1NCc1ccccc1)N1CCOCC1 ?
result: -5.42

query: Quick one: inhibition of COCCNc1nc(C(C)(C)C)nc2c1nnn2Cc1ccccc1Cl ?
result: 56

query: Quick one: inhibition of COC(=O)[C@H](CCSC)NC(=O)Nc1cc(C)ccc1C ?
result: 31

query: Quick one: inhibition of O=c1oc2ccccc2c(O)c1CN1CCCCC1 ?
result: 8.62

query: Quick one: inhibition of COc1ccccc1C(=O)Nc1ccc(N2CCN(Cc3ccccc3)CC2)cc1 ?
result: -11

query: Quick one: inhibition of COC(=O)C(C#N)C(=C1C(=O)CC(C)(C)CC1=O)c1ccc(O)cc1 (stereo not drawn) ?
result: 10.9

query: Quick one: inhibition of COC(=O)c1[nH]c2ccc(C)cc2c1NC(=O)CN1CCCC(C)(C)C1 ?
result: 18

query: Quick one: inhibition of Cc1cc(Br)ccc1NC(=O)CCN1C(=O)c2ccncc2C1=O ?
result: 13.1

query: Quick one: inhibition of CCC(=O)N1CCc2cc(Br)cc(S(=O)(=O)N3CCCCCC3)c21 ?
result: 12.3

query: Quick one: inhibition of C#CC1(O)CC(C)N(C)C(C)C1 (stereo not drawn) ?
result: 17.2

query: Quick one: inhibition of COC(=O)c1ccc(NC(=O)C2C3CCC(C3)C2C(=O)O)cc1 (stereo not drawn) ?
result: -15.9

query: Quick one: inhibition of O=P(CCNCc1ccco1)(c1ccccc1)c1ccccc1 ?
result: 91.3

query: Quick one: inhibition of CC(C)CCn1c(N)c(S(=O)(=O)c2cccs2)c2nc3ccccc3nc21 ?
result: -1.32

query: Quick one: inhibition of Cc1onc(-c2c(F)cccc2Cl)c1C(=O)Nc1nc2c(s1)CCCC2 ?
result: 99.1

query: Quick one: inhibition of CCN(CC(=O)NCc1cccs1)C(=O)c1cc(S(=O)(=O)N2CCOCC2)ccc1C ?
result: 27.8

query: Quick one: inhibition of Cc1c(C(=O)NCc2ccccn2)oc2ccccc12 ?
result: -79.6

query: Quick one: inhibition of CC1(C)C(c2cccs2)=[N+]([O-])C2(CCCCC/C2=N\O)N1O (stereo not drawn) ?
result: 15.3

query: Quick one: inhibition of CC(C)(C)c1cc(NC(=O)c2cc(F)c(F)c(F)c2F)no1 ?
result: -90.4
